B1: H2-Kb / B10 (parent)
chain 1: GQQVQQSPASLVLQEGENAELQCNFSSTATRLQWFYQRPGGSLVSLLSNPSGTKHTGRLTSTTVTKERRGSLHISSSQITDSGTYLCAPGGSNAKLTFGKGTKLSVKS
chain 2: DPKIIQKPKYLVAVTGSEKILICEQYLGHNAMYWYRQSAKKPLEFMFSYSYQKLMDNQTASSRFQPQSSKKNHLDLQITALKPDDSATYFCASSLRGGNNQAPLFGEGTRLSVL
chain 3: not shown
chain 4: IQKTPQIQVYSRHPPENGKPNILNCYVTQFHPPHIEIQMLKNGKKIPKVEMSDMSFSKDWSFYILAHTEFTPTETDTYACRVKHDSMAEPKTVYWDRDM
chain 5: SIINFEKL

Variants of: B1
Experiment: % of reporter cells activated (NFAT-GFP), raw; note: test concentration or dose not given here
Details: with B10; scale: % of reporter cells activated
ratio to parent: recorded values
Response field accepts a number only; no unit should be typed.

Field request: ratio to parent | item: chain 5 E6T
1.75

Field request: ratio to parent | item: chain 5 I2M
0.729

Field request: ratio to parent | item: chain 5 I2R
1.05

Field request: ratio to parent | item: chain 5 I3K
1.47

Field request: ratio to parent | item: chain 5 E6W
1.09

Field request: ratio to parent | item: chain 5 L8V
0.51

New cases:
Field request: ratio to parent | item: chain 5 F5G
1.63

Field request: ratio to parent | item: chain 5 S1D
0.924

Field request: ratio to parent | item: chain 5 F5E
2.36

Field request: ratio to parent | item: chain 5 F5N
2.03

Field request: ratio to parent | item: chain 5 K7A
1.64

Field request: ratio to parent | item: chain 5 F5K
1.49

Field request: ratio to parent | item: chain 5 S1L
1.32

Field request: ratio to parent | item: chain 5 I3T
1.44

Field request: ratio to parent | item: chain 5 I3W
0.831
